Tested on: DAPK2
Settings: concentration: 1 μM, replicates: in singlicate; n = 1;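 further: KINOMEscan kinase panel screen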
Give %Inh for every item shown.
Numbers only, in %.

Here is how some compounds turned out for %Inh.
// lookup %Inh | system=DAPK2 | key= CCn1c(-c2ccccn2)nc2cnccc21 0

Another compound: O=C(Nc1ccccc1)Nc1cccc(Oc2ccc3nccn3n2)c1 0

Turning now to a further compound:
Entry Cl.NC(=O)c1cccc(Nc2nccc(Nc3ccc(Oc4cccc(Cl)c4)c(Cl)c3)n2)c1 , system DAPK2: what %Inh was measured? 0

###

Tested on: ABL1-nonphosphorylated
Details: concentration: 1 μM, replicates: in singlicate; n = 1
Metric: %Inh (%)
One number for each entry, in %.

Solved entries:
I'm curious: which %Inh was measured for O=C(Nc1ccccc1)Nc1cccc(Oc2ccc3nccn3n2)c1 tested on ABL1-nonphosphorylated? 89

Moving on to Cc1cccc(-c2nc(Nc3cccc(C(N)=O)c3)c3ccccc3n2)n1 [GW876019] 25

Kindly review the next compound as well.
What reported %Inh corresponds to Cc1cccc(-c2nc(C)cc(Nc3ccncc3)n2)n1 [GSK257997] on ABL1-nonphosphorylated? 0
